test system: NCI-H460 lung; test: NCI tumour cell line growth inhibition, 48 h
TGI overview

compound	TGI
COc1ccccc1[As]=[As]c1ccccc1OC (centres undefined)	0.334 µM
CCOC(=O)CSC1NC(C(=O)OC)CC1OC (centres undefined)	> 100 µM
Cc1ccc(/C=C/C(=O)c2sc(-n3nc(-c4ccccc4)cc3-c3ccccc3)nc2C)cc1	> 100 µM
COCN(C)c1nc(N(C)C)nc(N(C)C)n1	> 100 µM
O=C1Nc2ccccc2/C1=C\c1nc(-c2ccccc2F)n2ccccc12	5.14 µM
CCn1c(=O)c(C(=O)O)c(Cl)c2cc3c(cc21)OCO3	> 100 µM
Cn1c(=O)c(Oc2ccc(F)cc2F)cc2cnc(N[C@@H]3CCOC3)nc21	> 25 µM
Cc1cn(Cc2cccc(C3=NCCCN3)c2)c(=O)n(Cc2cccc(C3=NCCCN3)c2)c1=O	> 100 µM
Cc1c2ccncc2c(C)c2c1sc1ccccc12	14.3 µM
CCN(CC)c1ccc(-c2cc(-c3cc(OC)c(OC)c(OC)c3)nc(N3CCC(O)CC3)c2C#N)cc1	1.62 µM
N#CC(C#N)=c1c2ccccc2c(=C(C#N)C#N)c2ccccc12	63.6 µM
O=C1CCC2c3ccccc3NCN12 (centres undefined)	> 100 µM
O=C(CC(C(=O)c1ccsc1)c1ccsc1)c1ccsc1 (centres undefined)	> 100 µM
OC1CCCC2CCC[N-]C12.OC1CCCC2CCC[N-]C12.[O]=[V][OH] (centres undefined)	> 100 µM
CCCCOc1ccc(/C=N/Nc2cc(C)nc3ccc(Br)cc23)cc1	4.06 µM
CC[C@H](C)[C@H](NC(=O)[C@H]1CCCCN1C)C(=O)N(C)[C@H](C[C@@H](OC(C)=O)c1cccc(C(=O)N[C@@H](Cc2ccccc2)C[C@H](C)C(=O)O)n1)C(C)C	> 25 µM
COC(=O)c1c(-c2cc(OC)c(OC)c(OC)c2)oc2ccccc2c1=O	> 100 µM
COc1cc2cc3c4c(cc(OC)c(OC)c4c2cc1OC)CCN3C	> 27.3 µM
CCC(C)C1=C(O)[N+]2([O-])Oc3ccc(C4=C(O)C(=O)C(c5ccc(O)cc5)=C(O)C4=O)cc3OC2(C(C)CC)C(=O)N1O (centres undefined)	> 100 µM
CCCCCCCCCCCCCCCC(=O)OCCOCCOCCOCCOCCOC(=O)CCCCCCCCCCCCCCC	> 100 µM
C#CC1(O)C(COP(=O)(O)OCC2OC(n3cc(F)c(=O)[nH]c3=O)CC2O)OC(n2ccc(N)nc2=O)C1O (centres undefined)	> 21.5 µM
O=c1[nH][nH]c(=O)n1/N=C/c1ccccc1	> 100 µM
C[C@]12CC[C@H](O)CC1=CC[C@@H]1C2CC[C@]2(C)C(=O)NC(=O)CC12 (some centres undefined)	> 100 µM
CCOC(=O)c1[nH]c2cc(OC)c(OC)cc2c1CN(C)C	> 100 µM

----------
tested on: SNB-75 CNS; assay: NCI tumour cell line growth inhibition, 48 h; in the data active means GI50 below about 0.43 µM; inactive means the rest
Labels: active, inactive

> print(dat)
                                    compound     class
 1  Nc1ncc(-c2ccc3ncnc(N4CCc5ccc(Cl)cc54)c3c2)cc1C(F)(F)F    active
 2               Cc1nc2sc3c(N)ncnc3c2c(C)c1C  inactive
 3  COc1cc2c3c(n(CCCNCCCNCCN)c(=O)c2cc1OC)-c1cc2c(cc1C3=O)OCO2  inactive
 4                  CCCCCCCCCCNCCSS(=O)(=O)O  inactive
 5  COc1ccc(S(=O)(=O)Nc2c(/C=C\c3cc(OC)c(OC)c(OC)c3)ccc(OC)c2O)cc1    active
 6  O=C(/C=C/c1ccccn1)c1ccc(OCc2nnc(-c3ccc(Cl)cc3)o2)cc1  inactive
 7    COc1cc(-c2nc3ccccc3o2)cc(CN2CCCCC2)c1O  inactive
 8  Cc1ccc(Cl)c(NS(=O)(=O)c2ccc(-c3cnc(C4CC4)o3)cc2)c1    active
 9  [N-]=[N+]=NCCCn1c2c(c3ccc([N+](=O)[O-])cc3c1=O)C(=O)c1cc(-c3ccccc3)ccc1-2  inactive
10  COc1ccc(C(=O)c2cc3c(N)c(C(=O)Nc4cccc(Br)c4C)sc3nc2C)cc1    active
11  CCCCOc1ccc(/C=N/Nc2cc(C)nc3ccc(Br)cc23)cc1  inactive
12  CCC(C)C1=C(O)[N+]2([O-])Oc3ccc(C4=C(O)C(=O)C(c5ccc(O)cc5)=C(O)C4=O)cc3OC2(C(C)CC)C(=O)N1O (configuration not stated)  inactive
13  COc1ccc(-c2cc(-c3ccc(Cl)cc3)nc(NCCCCNc3ccnc4cc(Cl)ccc34)n2)cc1  inactive
14        Fc1ccc(-c2nn3ccccc3c2-c2ccncc2)cc1  inactive
15  O=C(Nc1cc(F)c(F)cc1C(=O)O)c1ccc(-n2ccnc2)nn1  inactive
16        Clc1cccc(CNc2c3ccccc3nc3ccccc23)c1  inactive
17  CNC(=O)c1c(F)cccc1Nc1nc(Nc2cc3c(cc2OC)CCN3C(=O)CN(C)C)nc2[nH]ccc12  inactive

----------
tested on: NCI-H522 lung; assay: NCI tumour cell line growth inhibition, 48 h; in the data active = GI50 below about 0.43 µM; inactive = the rest
Possible outcomes: 1 (yes) (active), 0 (no) (inactive)

> print(dat)
                                  structure    class
1  COc1ccc2c(O)c(/C=C3\N=Nc4ncccc43)oc2c1C[C@@H]1CCNC[C@H]1F  1 (yes)
2  COc1ccc(S(=O)(=O)Nc2c(/C=C\c3cc(OC)c(OC)c(OC)c3)ccc(OC)c2O)cc1  1 (yes)
3  O=C(/C=C/c1ccccn1)c1ccc(OCc2nnc(-c3ccc(Cl)cc3)o2)cc1   0 (no)

----------
tested on: HCT-15 colon; test: NCI tumour cell line growth inhibition, 48 h
observationType: TGI

> print(dat)
                                    compound  observationtype      value
 1  CCOC(=O)OC1C(Br)C2CCC1(C)C2(C)C (stereo unspecified)              TGI    27.5 µM
 2      c1ccc2c(c1)c1c3c(c4c(n32)=NCCN4)CCC1              TGI   > 100 µM
 3  CC1=C(C(=O)Nc2ccc(F)c(Cl)c2)C(c2cccc(Oc3ccccc3)c2)NC(=S)N1 (stereo unspecified)              TGI    33.2 µM
 4  Cc1ccc(S(=O)(=O)N/N=C2\CCCCCCCCCCC2CN(C)C)cc1 (stereo unspecified)              TGI      29 µM
 5  COc1ccc2c(O)c(/C=C3\N=Nc4ncccc43)oc2c1C[C@@H]1CCNC[C@H]1F              TGI    1.87 µM
 6  CCS(=O)c1c2cc(OC)ccc2nc2ccc(OC)cc12 (stereo unspecified)              TGI  > 52.5 µM
 7         CN(C)C(=S)C(Cl)(c1ccccc1)c1ccccc1              TGI   > 100 µM
 8  O=C(Nc1ccc(Cl)cc1C(=O)O)c1ccc([N+](=O)[O-])cc1              TGI    46.3 µM
 9      Oc1ccc2ccccc2c1C=NCc1c(O)ccc2ccccc12              TGI   > 100 µM
10       C[n+]1c2ccccc2c(CNCC(=O)O)c2ccccc21              TGI    4.94 µM
11  Cc1cn(Cc2cccc(C3=NCCCN3)c2)c(=O)n(Cc2cccc(C3=NCCCN3)c2)c1=O              TGI   > 100 µM
12  COC(=O)c1c(O)ccc2c1c1c(n2Cc2ccccc2OC)C(=O)c2ccccc2C1=O              TGI      20 µM
13  CCCCCCCCCCCCN=C(N)c1ccc(N2CCN(c3ccc(C(N)=NCCCCCCCCCCCC)cc3)CC2)cc1              TGI    > 50 µM
14  O=C1c2ccccc2C(=O)c2c(NC(=O)C3CC3)ccc(NC(=O)C3CC3)c21              TGI   > 100 µM
15          CS(=O)(=O)OCCCSCCSCCCOS(C)(=O)=O              TGI   > 100 µM
16  O=C(CSCC(=O)N/N=C\c1ccc(O)c(O)c1O)N/N=C\c1ccc(O)c(O)c1O              TGI    29.1 µM
17  C(=C\C(Sc1ccccc1)c1ccccc1)/NNC1=NC(c2ccccc2)C(c2ccccc2)=NN1 (stereo unspecified)              TGI   > 100 µM
18  CCC1(CC)N=C(C(F)(F)F)c2cc(C(=O)C(F)(F)F)c3ccccc3c2N1              TGI   > 100 µM
19  COc1ccc(/C=C/C(=O)c2c(-c3ccccc3)nn(C)c(=O)c2N2CCOCC2)cc1              TGI   > 100 µM
20  c1ccc(Cn2c(-c3ccc(-c4ccccc4)cc3)cc3ccccc32)cc1              TGI   > 100 µM
21  CS(=O)(=O)c1cccc(Nc2ncc3cc(-c4ccccc4Cl)ccc3n2)c1              TGI  > 33.3 µM
